Assay: rescue of polyQ-huntingtin neuronal dysfunction in worms, whole organism, C. elegans mechanosensory neurons, N-terminal huntingtin (AID 1599)
Settings: touch response, stronger effect = higher value
Measured potencies and affinities stand elsewhere.
Rule: YES for rescue above control not less than 1, NO for anything less.

Consider the worked cases shown below.
[
  {
    "Compound": "C/C=C(\\C)C(=O)O[C@H]1C[C@@H](OC(C)=O)[C@@]2(C(=O)OC)CO[C@@H]3C2[C@]12CO[C@](O)(C(=O)OC)[C@H]2[C@](C)(C12O[C@@]1(C)[C@H]1C[C@@H]2OC2OC=C[C@@]21O)[C@@H]3O (some centres not stated)",
    "Category": "YES"
  },
  {
    "Compound": "COc1ccc(C(=O)N2CCCC2=O)cc1",
    "Category": "YES"
  },
  {
    "Compound": "O=[N+]([O-])c1cc(O)c(O)c([N+](=O)[O-])c1",
    "Category": "NO"
  },
  {
    "Compound": "C=CCC1(C(C)CCC)C(=O)N=C(S)NC1=O (configuration not stated)",
    "Category": "YES"
  },
  {
    "Compound": "CN1C[C@H](CO)C=C2c3cccc4[nH]cc(c34)C[C@H]21",
    "Category": "YES"
  }
]

Now turn to the next compound.
q: Does rescue above control meet or surpass 1 for CCN1C[C@@]2(COC)C3[C@@H](OC)[C@H]4[C@@H]1[C@]3(C(OC)C[C@H]2O)C1C[C@@]2(O)[C@H](OC(=O)c3ccccc3)C1[C@]4(OC(C)=O)[C@@H](O)[C@@H]2OC (some centres not stated) ?
a: NO
